Each record here notes measured IC50.
- Target Entity: Histone deacetylase 1 (Homo sapiens)
- Sequence (Q13547 whole entry): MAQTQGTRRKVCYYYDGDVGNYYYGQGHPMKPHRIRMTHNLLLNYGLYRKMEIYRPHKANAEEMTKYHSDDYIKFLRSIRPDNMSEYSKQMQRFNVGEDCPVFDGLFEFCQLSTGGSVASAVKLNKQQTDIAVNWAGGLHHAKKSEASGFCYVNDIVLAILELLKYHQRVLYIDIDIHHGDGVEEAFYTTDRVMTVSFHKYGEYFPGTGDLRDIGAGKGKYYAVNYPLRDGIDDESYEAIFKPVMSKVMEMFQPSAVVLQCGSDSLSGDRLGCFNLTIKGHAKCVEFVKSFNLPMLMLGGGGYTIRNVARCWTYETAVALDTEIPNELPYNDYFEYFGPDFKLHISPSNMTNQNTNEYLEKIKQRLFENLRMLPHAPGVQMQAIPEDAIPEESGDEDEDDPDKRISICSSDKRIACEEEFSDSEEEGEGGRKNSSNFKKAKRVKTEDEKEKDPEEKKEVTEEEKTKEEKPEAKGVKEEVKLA

In the examples that follow, each entry is paired with its recorded IC50.
O=C(CC[C@@H]1N=C(c2ccccc2)c2ccccc2NC1=O)NC(c1ccccc1)(c1ccccc1)c1ccccc1 ... > 30 µM
C[C@@H]1N=C(c2ccccc2)c2ccccc2NC1=O ... > 30 µM

Here's the next entry for you.
Prompt line: Value lookup for IC50; key = "O=C(C[C@@H]1N=C(c2ccccc2)c2ccccc2NC1=O)NO"
Response line: > 30 µM

====

- Target Entity: Histone deacetylase 1 (Homo sapiens)
Assay Metric: IC50

CSCC[C@@H]1N=C(c2ccccc2)c2ccccc2NC1=O ... > 30 µM
COC(=O)CCCCN1C(=O)[C@H](CC(=O)OC(C)(C)C)N=C(c2ccccc2)c2ccccc21 ... > 30 µM
O=C(CCCCN1C(=O)[C@H](CC(=O)NC(c2ccccc2)(c2ccccc2)c2ccccc2)N=C(c2ccccc2)c2ccccc21)NO ... > 30 µM
Cc1c(C)c(S(=O)(=O)NC(=N)NCCC[C@@H]2N=C(c3ccccc3)c3ccccc3N(CCCCC(=O)O)C2=O)c(C)c2c1OC(C)(C)C2 ... > 30 µM
O=C(C[C@H]1N=C(c2ccccc2)c2ccccc2NC1=O)NO ... > 30 µM
O=C(C[C@@H]1N=C(c2ccccc2)c2ccccc2NC1=O)NC(c1ccccc1)(c1ccccc1)c1ccccc1 ... > 30 µM
O=C(CCCCN1C(=O)CN=C(c2ccccc2)c2ccccc21)NO ... 3.84 µM

Here's the next entry for you.
Prompt line: Value lookup for IC50; key = "O=C(CCCNC(=O)C[C@@H]1N=C(c2ccccc2)c2ccccc2NC1=O)NO"
Response line: 17.4 µM
